Target: T1, ComA (Bacillus subtilis, UniProt P14204 1-214)
T1 sequence: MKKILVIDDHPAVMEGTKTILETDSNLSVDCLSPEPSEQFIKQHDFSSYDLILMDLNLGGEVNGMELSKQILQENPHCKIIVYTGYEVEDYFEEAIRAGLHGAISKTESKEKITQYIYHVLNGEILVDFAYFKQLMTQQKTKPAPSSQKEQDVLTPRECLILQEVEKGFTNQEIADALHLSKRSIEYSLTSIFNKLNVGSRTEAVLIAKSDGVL
Experiment: EMSA; EMSA: 10 mM HEPES pH 7.6, 2 mM MgCl2, 0.1 mM EDTA, 200 mM KCl, 5 mM DTT, 10% glycerol; 10 ng DNA in 15 ul, 20 min, room temperature
Details: protein: recombinant; tags: N-terminal His6 (from expression primer); chain copies: 2; label: 5' biotin on strand 1; blunt
Parameter Measured: binding result

Task: Let me know recorded binding result for PIR n3 (dsDNA) DNA 1: ATGTTTAGTGGAAATGATTGCGGCATCCGCAAAAAATATTGCTGTAAAT DNA 2: ATTTACAGCAATATTTTTTGCGGATGCCGCAATCATTTCCACTAAACAT , thanks.
Output: no binding

Task: Let me know recorded binding result for PDR n15 (dsDNA) DNA 1: AAACTGGAATCGAAACTTTGCGGCCATTACCATCTACTTTGCGGTGATAAAAACATTTTT DNA 2: AAAAATGTTTTTATCACCGCAAAGTAGATGGTAATGGCCGCAAAGTTTCGATTCCAGTTT , thanks.
Output: no binding
